Just for reference, BindingDB's records for doi:10.1016/s0960-894x(98)00676-3 is where these values come from.

# target-or-system: Arachidonate 5-lipoxygenase (Rattus norvegicus)
# assay-overview: Evaluated for inhibitory activity against RBL-1 cell 5-lipoxygenase in rat
pIC50: −log10 of the molar value.
measured-endpoint: pIC50

Solved cases below.
[[record]]
record_smiles = "Cc1cc(OCCN2CCN(C(c3ccccc3)c3ccccc3)CC2)c(C)c(C)c1O"
experimental_result = 6.09

[[record]]
record_smiles = "Cc1cc(OCCCN2CCN(C(c3ccccc3)c3ccccc3)CC2)c(C)c(C)c1O"
experimental_result = 6.37


[a] Cc1cc(OCCCCCCCCN2CCN(C(c3ccccc3)c3ccccc3)CC2)c(C)c(C)c1O
[b] Cc1cc(OCCCCN2CCN(C(c3ccccc3)c3ccccc3)CC2)c(C)c(C)c1O
Please indicate which entry, a or b , has the lower recorded pIC50 value. Use the label to indicate which entry you chose.
a
(a: 5.97, b: 6.45)
